B1: Pistol ribozyme (parent)
chain: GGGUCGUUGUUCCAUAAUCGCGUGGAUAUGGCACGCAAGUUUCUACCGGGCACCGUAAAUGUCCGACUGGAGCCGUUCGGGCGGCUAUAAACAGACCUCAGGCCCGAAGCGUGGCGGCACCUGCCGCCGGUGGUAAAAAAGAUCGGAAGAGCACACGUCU

- Variants of: B1
- Assay method text: aptazyme ON/OFF ratio, guanine; higher = stronger switching; co-transcriptional cleavage with and without guanine
Measured aptazyme ON/OFF ratio, listed per entry.
Measured attribute: aptazyme ON/OFF ratio

Change: U7G U8A U10G U11C C12A C13G
Measured attribute: aptazyme ON/OFF ratio
Reported: 1.17

Change: U7C U8C G9A U10G U11G C13U
Measured attribute: aptazyme ON/OFF ratio
Reported: 1.29

Change: U7C U8G G9A U10G U11A C12U C13U
Measured attribute: aptazyme ON/OFF ratio
Reported: 1.32

Change: U7G U8A G9U U10A C12A C13U
Measured attribute: aptazyme ON/OFF ratio
Reported: 1.06

Change: G9A U11C C12U C13G
Measured attribute: aptazyme ON/OFF ratio
Reported: 1.38

Change: U7A U8A G9C U11A C13U
Measured attribute: aptazyme ON/OFF ratio
Reported: 1.17

Change: U7A U8A G9U U10C U11A C13A
Measured attribute: aptazyme ON/OFF ratio
Reported: 1.22

Change: U7G U8G G9C U11C C12A
Measured attribute: aptazyme ON/OFF ratio
Reported: 5.2

Change: U7C U8G U10A U11G C12A C13G
Measured attribute: aptazyme ON/OFF ratio
Reported: 1.13

Change: U7C U8G G9C U11A C12U C13U
Measured attribute: aptazyme ON/OFF ratio
Reported: 1.16

Change: U7C U8C U10C U11C C12A C13U
Measured attribute: aptazyme ON/OFF ratio
Reported: 1.24

Change: U7G U8A G9U U10G C12U C13G
Measured attribute: aptazyme ON/OFF ratio
Reported: 1.03

Change: U7G U8A G9C U10G U11G C12G C13U
Measured attribute: aptazyme ON/OFF ratio
Reported: 1.01

Change: U10G U11G C12A C13A
Measured attribute: aptazyme ON/OFF ratio
Reported: 1.15

Change: U7G U8A G9A U10G C12G C13U
Measured attribute: aptazyme ON/OFF ratio
Reported: 1.23

Change: U7G U8A G9C U10C U11A C13G
Measured attribute: aptazyme ON/OFF ratio
Reported: 1.06

Change: U7A U8C G9U U10C U11C C12A C13U
Measured attribute: aptazyme ON/OFF ratio
Reported: 1.06

Change: U8C U10C U11A C12G
Measured attribute: aptazyme ON/OFF ratio
Reported: 1.35

Change: U7C U8A U10G U11C C13U
Measured attribute: aptazyme ON/OFF ratio
Reported: 1.05

Change: U7C U8G G9U U11A C12G
Measured attribute: aptazyme ON/OFF ratio
Reported: 1.18

Change: U7C G9C U11G C12G C13A
Measured attribute: aptazyme ON/OFF ratio
Reported: 1.08

Change: G9A U10G U11G C13U
Measured attribute: aptazyme ON/OFF ratio
Reported: 1.12

Change: U8C G9U U10C U11C C12A
Measured attribute: aptazyme ON/OFF ratio
Reported: 1.03

Change: U7C U8A G9C U10G U11A C12U
Measured attribute: aptazyme ON/OFF ratio
Reported: 1.08

Change: U7G U8G G9C U10G U11C C13U
Measured attribute: aptazyme ON/OFF ratio
Reported: 1.05

Change: U8C G9U U11G C12A
Measured attribute: aptazyme ON/OFF ratio
Reported: 1.08

Change: U7A G9U U10A U11G C12U
Measured attribute: aptazyme ON/OFF ratio
Reported: 1.39

Change: U7A U8C U10A C12U C13U
Measured attribute: aptazyme ON/OFF ratio
Reported: 1.22

Change: U7C G9A U10A C12A C13G
Measured attribute: aptazyme ON/OFF ratio
Reported: 1.14

Change: U7C G9A U10C C12A
Measured attribute: aptazyme ON/OFF ratio
Reported: 1.27

Change: U7G G9U U10A U11A C13U
Measured attribute: aptazyme ON/OFF ratio
Reported: 1.39

Change: U7A U8C U10G U11C C12G C13A
Measured attribute: aptazyme ON/OFF ratio
Reported: 1.45

Change: U7C U8C G9U U10A U11A C12U C13U
Measured attribute: aptazyme ON/OFF ratio
Reported: 1.18

Change: U7C U8C G9U U10G C12G
Measured attribute: aptazyme ON/OFF ratio
Reported: 1.15

Change: U8C U11G C12G C13U
Measured attribute: aptazyme ON/OFF ratio
Reported: 1.11

Change: U7C G9A U10G U11G C13A
Measured attribute: aptazyme ON/OFF ratio
Reported: 1.24

Change: U7G U8C G9U U10C C12G
Measured attribute: aptazyme ON/OFF ratio
Reported: 1.87

Change: U7A G9U U10A U11C C12U C13A
Measured attribute: aptazyme ON/OFF ratio
Reported: 1.23

Change: U8G G9C U11C C12G
Measured attribute: aptazyme ON/OFF ratio
Reported: 1.04

Change: U7G U8G G9A U10A C12G C13A
Measured attribute: aptazyme ON/OFF ratio
Reported: 1.1

Change: U7C U8G G9A U10G U11C C12U C13U
Measured attribute: aptazyme ON/OFF ratio
Reported: 1.29

Change: U7G U8G G9A U11G C13U
Measured attribute: aptazyme ON/OFF ratio
Reported: 1.3

Change: U7G U8G G9A U10G U11C C12G
Measured attribute: aptazyme ON/OFF ratio
Reported: 1.26

Change: U7G U8A G9U U10A U11G C13A
Measured attribute: aptazyme ON/OFF ratio
Reported: 1.09

Change: U7A G9A U10C U11G C12A C13G
Measured attribute: aptazyme ON/OFF ratio
Reported: 1.24

Change: U8G G9U U10G U11G C12G C13A
Measured attribute: aptazyme ON/OFF ratio
Reported: 1.07

Change: U7C U8A G9A U10A U11A C12G C13G
Measured attribute: aptazyme ON/OFF ratio
Reported: 1.28

Change: U7A U8G G9U U10G U11C C12U
Measured attribute: aptazyme ON/OFF ratio
Reported: 1.04

Change: G9C U10G U11G C13G
Measured attribute: aptazyme ON/OFF ratio
Reported: 1.12

Change: U7G U8A G9C U10A U11G C12G C13U
Measured attribute: aptazyme ON/OFF ratio
Reported: 1.04

Change: U8A G9A U10G U11A C12U C13G
Measured attribute: aptazyme ON/OFF ratio
Reported: 1.07

Change: U7A U8C G9A U10A U11C C12G C13U
Measured attribute: aptazyme ON/OFF ratio
Reported: 1.2

Change: U7C U8C G9A U11A C12U C13G
Measured attribute: aptazyme ON/OFF ratio
Reported: 1.25

Change: U7G U8A G9U U10G U11C
Measured attribute: aptazyme ON/OFF ratio
Reported: 1.04

Change: U7A U8A G9A U10G U11C C12A C13A
Measured attribute: aptazyme ON/OFF ratio
Reported: 1.17

Change: U8A U11A C13U
Measured attribute: aptazyme ON/OFF ratio
Reported: 1.15

Change: U7C C12G
Measured attribute: aptazyme ON/OFF ratio
Reported: 1.85

Change: U7G U8A G9A U10G U11C C13G
Measured attribute: aptazyme ON/OFF ratio
Reported: 1.08

Change: G9A U10C U11G C12G C13A
Measured attribute: aptazyme ON/OFF ratio
Reported: 1.17

Change: U7C U8A G9C U11A C12G C13G
Measured attribute: aptazyme ON/OFF ratio
Reported: 1.17

Change: U7G U8A G9C U10A C12U C13U
Measured attribute: aptazyme ON/OFF ratio
Reported: 1.05

Change: U7A U8C U10A U11G C12U C13G
Measured attribute: aptazyme ON/OFF ratio
Reported: 1.16
